Tested on: Candida krusei
Assay: in vitro antifungal activity (MIC80), Candida krusei
Type: cell-based
Conditions: Pichia kudriavzevii; 80% growth inhibition vs negative control; RPMI 1640; read 24 hrs after application; read-out: Antifungal Activity (MIC80) C. krusei
Protocol: […] From the agars on which the yeast molds were grown, single colonies were picked up, and each was sufficiently suspended in 5 mL of already prepared, 0.85% sterile saline. After correction of the absorbance to 0.108 at 530 nm, each of the suspensions was diluted to a ratio of 1:50 in an RPMI (Roswell park memorial institute) 1640 medium and then to a ratio of 1:20 to prepare an inoculum having a cell density of from 1.0×10^3 to 5.0×10^3CFU/mL. […]
QUANTITY_MEASURED: MIC80 (µg/mL)

compound="C[C@@H](NC1CCN(c2ccc(Cl)cc2)CC1)[C@](O)(Cn1cncn1)c1ccc(F)cc1F [Example 128]" reported_relation=≤ value_reported=0.015
compound="C[C@@H](c1ncncc1F)[C@](O)(Cn1cncn1)c1ccc(F)cc1F [Voriconazole, reference compound]" reported_relation== value_reported=0.5
compound="C[C@@H](NC1CCN(c2ncc(F)cn2)CC1)[C@](O)(Cn1cncn1)c1ccc(F)cc1F [Example 151]" reported_relation== value_reported=0.25
compound="OC(Cn1cncn1)(Cn1cncn1)c1ccc(F)cc1F [Fluconazole, reference compound]" reported_relation== value_reported=4
compound="C[C@@H](N1CCC(Oc2ncccn2)CC1)[C@](O)(Cn1cncn1)c1ccc(F)cc1F [Example 29]" reported_relation== value_reported=0.5
compound="C[C@@H](NC1CCN(c2ccc(F)cc2)CC1)[C@](O)(Cn1cncn1)c1ccc(F)cc1F [Example 125]" reported_relation== value_reported=0.062

###

test system: Candida krusei; assay: in vitro antifungal activity (MIC80), Candida krusei; assay type: cell-based; details: Pichia kudriavzevii; 80% growth inhibition vs negative control; RPMI 1640; read 24 hrs after application; read-out: Antifungal Activity (MIC80) C. krusei
Parameter MIC80: see the listing below.
QUANTITY_MEASURED: MIC80

compound="C[C@@H](N1CCC(Oc2ccc(F)cc2)CC1)[C@](O)(Cn1cncn1)c1ccc(F)cc1F [Example 1]" value_reported="0.062 µg/mL"
compound="C[C@@H](NC1CCN(c2ncc(Br)cn2)CC1)[C@](O)(Cn1cncn1)c1ccc(F)cc1F [Example 153]" value_reported="0.125 µg/mL"
compound="C[C@@H](N1CCC(Nc2ccc(Cl)cn2)CC1)[C@](O)(Cn1cncn1)c1ccc(F)cc1F [Example 59]" value_reported="0.062 µg/mL"
compound="C[C@@H](N1CCC(Oc2ncc(Br)cn2)CC1)[C@](O)(Cn1cncn1)c1ccc(F)cc1F [Example 32]" value_reported="0.125 µg/mL"
compound="C[C@@H](N1CCC(Nc2ccc(Cl)cc2)CC1)[C@](O)(Cn1cncn1)c1ccc(F)cc1F [Example 34]" value_reported="0.031 µg/mL"
compound="C[C@@H](N1CCC(Nc2ccc(F)cn2)CC1)[C@](O)(Cn1cncn1)c1ccc(F)cc1F [Example 58]" value_reported="0.062 µg/mL"
compound="C[C@@H](N1CCC(Nc2ncc(F)cn2)CC1)[C@](O)(Cn1cncn1)c1ccc(F)cc1F [Example 63]" value_reported="≤ 0.062 µg/mL"
compound="Cc1cc(C(F)(F)F)cnc1N1CCC(N[C@H](C)[C@](O)(Cn2cncn2)c2ccc(F)cc2F)CC1 [Example 148]" value_reported="≤ 0.062 µg/mL"
